Listed here: items and their measured growth.
System: UACC-62 melanoma
Experimental details: NCI-60 one-dose screen, 48 h (100 = growth as untreated, 0 = no growth, -100 = all killed)
Settings: 10 µM unless noted
The panel holds about 83,000 compounds, 20% with a hit somewhere; the sample as a whole holds those more often. Activity calls are given as the source filed them. Rule for the calls: active = growth percent below 10; inactive = the rest.

Study these solved cases before continuing.
- Oc1ccc(-c2nnc3c4[nH]ccc4ncn23)cc1: 95.2% (inactive)
- CCN1C(=O)N(CC)C2C1NC(=O)N2/N=C/C=C/c1ccccc1 (stereo not drawn): 20.6% (inactive)
- C=CCCCCOc1cccc(/C=C2\N=C3SCCCN3C2=O)c1: 87.6% (inactive)
- O=C(O/C(=C/c1ccccc1)C(F)(F)F)c1ccccc1: 100% (inactive)
- COc1ccccc1/C=C/C(=O)CCC(=O)O: 108% (inactive)

Prompt line: Could you tell me which growth is on file for "CC(C)CCSc1nc(-c2ccc(F)cc2)c(C#N)c(N2CCCCC2)n1" ?
Response line: 70.3% (inactive)

###

Listed here: items and their measured growth.
Tested on: UACC-62 melanoma
Experimental details: NCI-60 one-dose screen, 48 h (100 = growth as untreated, 0 = no growth, -100 = all killed)
Settings: 10 µM unless noted
Compounds without any hit were thinned out: in the full panel of roughly 83,000, 20% have a hit.
Give the value, in units of %, as a plain number.

Study these solved cases before continuing.
* FC(F)(F)c1cc(-c2nnc3n2N=C(Cl)CS3)cc(C(F)(F)F)c1 | 101
* O=C(NCCN1CCCCC1)n1cc(-c2ccncc2)c(-c2ccc(Cl)c(O)c2)n1 | 37.9
* C=C(c1ccc(C(=O)NCCCn2ccnc2)cc1)c1cc2c(cc1C)C(C)(C)CCC2(C)C | 66.7

Prompt line: Could you tell me which growth is on file for COc1cc(C2CC(c3ccc(C)cc3)=NN2C=O)ccc1Oc1ccnc2cc(Cl)ccc12 (configuration not stated) ?
Response line: 55.8

Prompt line: // query: "COc1cccc(-c2nc3sccn3c2-c2ccnc(NCCN3CCCNS3(=O)=O)n2)c1"
Response line: 9.99

Prompt line: // query: "CCc1c(C)c2ccc(O)c(-c3cc(-c4ccccc4)c(C#N)c(=O)[nH]3)c2oc1=O"
Response line: 77.3

Prompt line: // query: CCC1N=C(N)N=C(N)N1c1ccc(Cl)cc1 (configuration not stated)
Response line: 100

###

Tested on: SF-268 CNS
Experimental details: NCI-60 one-dose screen, 48 h
Settings: 10 µM unless noted
Compounds without any hit were thinned out: in the full panel of roughly 83,000, 20% have a hit. Calls of active or inactive are those of the source. How the source made its calls: active means growth percent below 10; inactive means the rest.
Respond only with the outcome that fits, drawn from 1 (yes) (active), 0 (no) (inactive)

Solved cases below.
* NC(N)=N/N=C/c1cccc(Cl)c1Cl | 0 (no)
* CCSc1cnnc2ccccc12 | 0 (no)
* CC(C)(CCc1ccccn1)C(=O)CCCc1ccccn1 | 0 (no)
* N/C(=N\OC(=O)c1ccccc1)C(Cc1ccccc1)C(=O)NOC(=O)c1ccccc1 (stereo not given) | 1 (yes)
* O=C1C=CN2C(=O)CC=CC2[C@@H]1O (stereo not given in full) | 0 (no)
* O=c1c2cc(Br)cc(Br)c2nc(-c2ccc(Cl)cc2)n1/N=C/c1cccc(F)c1 | 0 (no)
* COc1ccccc1/C=N\Nc1ccc([N+](=O)[O-])cn1 | 0 (no)
* c1csc(-c2cnc3nonc3n2)c1 | 0 (no)

Prompt line: Tell me the recorded outcome of this test for "OCCN(CCO)c1ccc2ccccc2c1" .
Response line: 0 (no)

Prompt line: // query: "O=C1SCN(Cc2ccccc2)CN1Cc1ccccc1"
Response line: 0 (no)

Prompt line: // query: "Cn1cnc([N+](=O)[O-])c1S(=O)(=O)Oc1cccc2ccccc12"
Response line: 0 (no)

Prompt line: // query: "Oc1ccccc1-c1nnc(COc2ccc(Cl)cc2Cl)o1"
Response line: 1 (yes)

Prompt line: // query: "CC(C)(C)OC(=O)N1CCCN(CCNc2nccc(-c3c(-c4cccc(O)c4)nc4sccn34)n2)S1(=O)=O"
Response line: 0 (no)

Prompt line: // query: "O=S(=O)(Cc1ccc(Cl)cc1Cl)c1ccc(Cl)cc1"
Response line: 0 (no)

Prompt line: // query: COc1cc(C2CC(c3ccccc3)=NN2C=O)ccc1Oc1ccnc2cc(Cl)ccc12 (stereo not given)
Response line: 0 (no)

Prompt line: // query: C=CCN1C(=O)/C(=c2\sc3n(c2=O)C2C(NN=3)N(CC)C(=O)N2CC)c2ccccc21 (stereo not given)
Response line: 0 (no)
